Target: human TLR8 (Homo sapiens)
Sequence (Q9NR97 27-1041): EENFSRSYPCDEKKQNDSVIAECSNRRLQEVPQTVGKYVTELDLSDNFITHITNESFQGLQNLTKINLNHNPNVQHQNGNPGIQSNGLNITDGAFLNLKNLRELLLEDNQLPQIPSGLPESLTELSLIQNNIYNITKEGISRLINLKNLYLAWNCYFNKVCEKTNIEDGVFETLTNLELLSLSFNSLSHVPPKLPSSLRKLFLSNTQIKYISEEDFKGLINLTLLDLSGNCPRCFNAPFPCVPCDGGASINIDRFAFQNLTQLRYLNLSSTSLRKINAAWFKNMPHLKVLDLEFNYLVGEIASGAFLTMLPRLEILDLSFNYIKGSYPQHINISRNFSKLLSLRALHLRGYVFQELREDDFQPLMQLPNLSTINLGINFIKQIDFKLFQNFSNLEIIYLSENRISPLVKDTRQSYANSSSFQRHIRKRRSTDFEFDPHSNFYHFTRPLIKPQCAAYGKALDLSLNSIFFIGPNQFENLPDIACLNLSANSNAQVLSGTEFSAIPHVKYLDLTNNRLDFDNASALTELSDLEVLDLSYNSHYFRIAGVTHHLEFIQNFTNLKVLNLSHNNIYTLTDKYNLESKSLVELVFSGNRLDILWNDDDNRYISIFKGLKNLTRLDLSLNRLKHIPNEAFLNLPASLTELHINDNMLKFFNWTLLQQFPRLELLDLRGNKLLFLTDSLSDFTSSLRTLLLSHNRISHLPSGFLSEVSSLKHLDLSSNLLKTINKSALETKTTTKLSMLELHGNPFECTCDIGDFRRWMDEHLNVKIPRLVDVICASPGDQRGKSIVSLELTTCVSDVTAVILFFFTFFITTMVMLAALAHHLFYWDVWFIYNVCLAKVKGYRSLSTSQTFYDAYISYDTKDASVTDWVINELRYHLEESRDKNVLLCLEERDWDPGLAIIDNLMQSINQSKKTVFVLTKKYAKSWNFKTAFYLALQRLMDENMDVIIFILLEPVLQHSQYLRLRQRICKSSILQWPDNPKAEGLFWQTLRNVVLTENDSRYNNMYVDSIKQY
Experiment: HEK-Blue hTLR8 reporter cell assay (SEAP, NF-kB/AP-1) for stimulation of human TLR8
Settings: HEK-Blue hTLR8 cells, 24 h incubation, SEAP readout; read-out: TLR8_EC50
pEC50: −log10 of the molar value. Where a name gives a salt, the structure may show the parent alone.
Quantity Name: pEC50

| Compound | Quantity Name | Test Result |
| --- | --- | --- |
| CCCCc1nc2c(N)nnc(N(C)Cc3ccccc3)c2n1C | pEC50 | 4.90 |
| CCCCc1nc2c(N)nnc(OC(C)C)c2n1CCCCCCN(C(C)=O)C1CCOCC1 | pEC50 | < 4.70 |
| CCCCc1nc2c(N)nnc(/C=C/C(C)C)c2n1Cc1ccc(OC)cc1 | pEC50 | < 4.70 |
| CCCCc1nc2c(N)nnc(OC(C)C)c2n1Cc1ccc(CN[C@H]2C[C@H](O)C2)cc1 [Compound 100, dihydrochloride salt] | pEC50 | 5.66 |
| CCCCc1nc2c(N)nnc(C3CCOC3)c2n1Cc1ccc(OC)cc1 (centres unmarked) | pEC50 | < 4.70 |

Return pEC50 measured with human TLR8 (Homo sapiens) given this compound: CCCCc1nc2c(N)nnc(/C=C/C(C)C)c2n1C[C@H]1CC[C@H](CN)CC1
< 4.70

Moving on to CCCCc1nc2c(N)nnc(Oc3ccccc3)c2n1Cc1ccc(OC)cc1
< 4.70

Moving on to CCCCc1nc2c(N)nnc(OC(C)C)c2n1Cc1ccc(CNS(C)(=O)=O)cc1
< 4.78

Moving on to CCCCc1nc2c(N)nnc(CCC(C)C)c2n1C[C@H]1CC[C@H](N)CC1
< 4.70

Moving on to CCCCc1nc2c(N)nnc(OC(C)C)c2n1Cc1ccc(CNCCOCCOCCOCCOCCOCCOCCOCCOC)cc1
< 4.70

Moving on to CCCCc1nc2c(N)nnc(OC(C)C)c2n1CC(C)(CO)CO [Compound 156, hydrochloride]
8.30

Moving on to CCCCc1nc2c(N)nnc(OC(C)C)c2n1Cc1ccc(CNC(=O)OCc2ccc(NC(C)=O)cc2)cc1
< 5.20

Moving on to CCCCc1nc2c(N)nnc(NC(C)C)c2n1Cc1ccc(OC)cc1
< 4.70

Moving on to CCCCc1nc2c(N)nnc(OC3CCOCC3)c2n1Cc1ccc(OC)cc1
< 4.70

Moving on to CCCCc1nc2c(N)nnc(-c3cccn3C)c2n1Cc1ccc(OC)cc1 [Compound 70, hydrochloride]
< 4.70

Moving on to CCCCc1nc2c(N)nnc(OC3CCOC3)c2n1Cc1ccc(OC)cc1 (centres unmarked)
< 4.70

Moving on to CCCCC(=O)NCc1ccc(Cn2c(CCCC)nc3c(N)nnc(OC(C)C)c32)cc1
< 4.70

Recorded values, source patent US12583861B2.
